B1: glmS ribozyme (parent)
chain: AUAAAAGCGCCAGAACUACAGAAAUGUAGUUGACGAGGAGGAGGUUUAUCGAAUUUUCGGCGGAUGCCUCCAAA

variants of: B1; test: self-cleavage kobs at 40 uM GlcN6P; higher = faster cleavage; RNA array; settings: with glucosamine-6-phosphate
This sample holds only a part of the variants without activity.
property: self-cleavage kobs at 40 uM GlcN6P

Some variants with recorded self-cleavage kobs at 40 uM GlcN6P:
1. G29U A64C
< 1e-05 s⁻¹
2. U31A A36G A52C
< 1e-05 s⁻¹
3. G41C G43C
< 1e-05 s⁻¹
4. G40C C61A
< 1e-05 s⁻¹
5. A36U U45C C50U
< 1e-05 s⁻¹
6. U56G G66A
0.00021 s⁻¹
7. A15U G32U A33U
< 1e-05 s⁻¹
8. G37A A42U
2.47e-05 s⁻¹

Q: Return self-cleavage kobs at 40 uM GlcN6P for the following variant: G13C A15U C16G A39C
Result: < 1e-05 s⁻¹

Q: Return self-cleavage kobs at 40 uM GlcN6P for the following variant: A14G U30C
Result: 3.48e-05 s⁻¹

Q: Return self-cleavage kobs at 40 uM GlcN6P for the following variant: A14U A52C C71G
Result: < 1e-05 s⁻¹

Q: Return self-cleavage kobs at 40 uM GlcN6P for the following variant: A39C U65G C70G
Result: < 1e-05 s⁻¹

Q: Return self-cleavage kobs at 40 uM GlcN6P for the following variant: G38U C61A C67U
Result: 8.86e-05 s⁻¹

Q: Return self-cleavage kobs at 40 uM GlcN6P for the following variant: U30A G62A
Result: < 1e-05 s⁻¹

Q: Return self-cleavage kobs at 40 uM GlcN6P for the following variant: A33U G62C
Result: < 1e-05 s⁻¹

Q: Return self-cleavage kobs at 40 uM GlcN6P for the following variant: G44A U46G U69G
Result: < 1e-05 s⁻¹

Q: Return self-cleavage kobs at 40 uM GlcN6P for the following variant: G41A G51C
Result: < 1e-05 s⁻¹
